Catalogue of IC50 readings, one per entry.
Experimental Target: HCV polymerase (Hepatitis C virus genotype 1b, UniProt P26663)
Construct: a region encoding NS5B (591 amino acids; J Virol 1991 Mar, 65(3), 1105-13) was amplified by PCR; 6 His (N); made in house; host or cells: Escherichia coli
Sequence (P26663 2420-3010): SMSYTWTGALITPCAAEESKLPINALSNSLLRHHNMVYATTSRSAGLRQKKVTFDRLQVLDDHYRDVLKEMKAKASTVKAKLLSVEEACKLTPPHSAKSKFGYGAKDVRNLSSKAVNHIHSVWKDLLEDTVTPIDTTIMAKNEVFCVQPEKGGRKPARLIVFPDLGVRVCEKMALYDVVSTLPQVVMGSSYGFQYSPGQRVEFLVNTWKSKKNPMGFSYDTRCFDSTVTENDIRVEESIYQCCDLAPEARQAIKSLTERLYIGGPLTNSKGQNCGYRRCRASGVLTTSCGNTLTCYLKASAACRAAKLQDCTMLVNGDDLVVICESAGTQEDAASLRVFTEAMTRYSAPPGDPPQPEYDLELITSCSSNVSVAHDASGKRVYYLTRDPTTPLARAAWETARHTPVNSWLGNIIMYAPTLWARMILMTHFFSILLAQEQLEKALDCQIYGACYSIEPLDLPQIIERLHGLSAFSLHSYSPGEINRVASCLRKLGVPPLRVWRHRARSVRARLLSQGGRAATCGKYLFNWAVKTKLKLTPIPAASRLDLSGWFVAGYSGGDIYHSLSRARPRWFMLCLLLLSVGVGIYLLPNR
Method Description: biochemical
Measurement Parameters: read-out: HCV polymerase inhibitory activity IC50
Where a name gives a salt, the structure may show the parent alone.

Molecule	IC50 / nM
CC1(C)COC(c2ccc(-c3ccc(Cl)cc3)c(COc3ccc(-c4nc5cc(C(=O)O)ccc5n4C4CCCCC4)cc3)c2)=N1 [Example 353, dihydrochloride]	23
CC(C)(C)c1ccc(COc2ccc(-c3nc4cc(C(=O)O)ccc4n3C3CCCC3)cc2)cc1	580
CCN(CC)C(=O)c1ccc(-c2ccc(Cl)cc2)c(COc2ccc(-c3nc4cc(C(=O)O)ccc4n3C3CCCCC3)c(F)c2)c1	14
O=C(O)c1ccc2c(c1)nc(-c1ccc(OCc3cc(C(=O)N4CCC(O)CC4)sc3-c3ccc(F)cc3)cc1F)n2C1CCCCC1 [Example 433, hydrochloride]	14
O=C(O)c1ccc2c(c1)nc(-c1ccc(OCc3nc(N4CCCC4=O)ccc3-c3ccc(Cl)cc3)cc1F)n2C1CCCCC1 [Example 457, hydrochloride]	15
CC(C)N(C)C(=O)c1ccc(-c2ccc(Cl)cc2)c(COc2ccc(-c3nc4cc(C(=O)O)ccc4n3C3CCCCC3)c(F)c2)c1 [Example 386, hydrochloride]	18
O=C(O)c1ccc2c(c1)nc(-c1ccc(OCc3cc(Cl)ccc3-c3cccc(Cl)c3)cc1)n2C1CCCCC1	150
COc1cccc(Oc2ccc(-c3nc4cc(C(=O)O)ccc4n3C3CCCCC3)cc2)c1	110
COc1ccc(-c2ccc(Cl)cc2)c(COc2ccc(-c3nc4cc(C(=O)O)cnc4n3C3CCCCC3)cc2)c1	52
O=C(O)c1ccc2c(c1)nc(-c1ccc(OCc3cc(C(=O)N4CC[C@H](O)[C@H](O)C4)ccc3-c3ccc(Cl)cc3)cc1)n2C1CCCCC1 (stereo in doubt) [Example 348, hydrochloride]	13
O=C(O)c1ccc2c(c1)nc(-c1ccc(OC(c3ccccc3)c3ccccc3)cc1)n2C1CCCC1	190
O=C(O)c1ccc2c(c1)nc(-c1ccc(OCc3ccc(Cl)s3)cc1)n2C1CCCC1	470
CNC(=O)c1ccc(-c2ccc(Cl)cc2)c(COc2ccc(-c3nc4cc(C(=O)O)ccc4n3C3CCCCC3)cc2)c1 [Example 248, hydrochloride]	12
